Give solubility at 24 h for every item shown.
# Measurement Protocol: physchem
# Run Parameters: adult fed state simulated intestinal fluid (FeSSIF-V2), 37 °C, pH 5.8, fessif, thermodynamic from solid

(Q) Read the entry O=C1CN(/N=C/c2ccc([N+](=O)[O-])o2)C(=O)N1 [Nitrofurantoin] and write its reported solubility at 24 h.
(A) 209 µg/mL

(Q) Give solubility at 24 h for OCCN(CCO)c1nc(N2CCCCC2)c2nc(N(CCO)CCO)nc(N3CCCCC3)c2n1 [Dipyridamole]
(A) 81.4 µg/mL

----------
# Measurement Protocol: physchem
# Run Parameters: adult fed state simulated gastric fluid (FeSSGF), milk-based, 37 °C, pH 5, fassgf or other biorelevant, thermodynamic from solid
Readout Type: solubility at 48 h

(Q) Read off the recorded solubility at 48 h for O=C1CN(/N=C/c2ccc([N+](=O)[O-])o2)C(=O)N1 [Nitrofurantoin]
(A) 390 µg/mL

(Q) Look up and state reported solubility at 48 h for OCCN(CCO)c1nc(N2CCCCC2)c2nc(N(CCO)CCO)nc(N3CCCCC3)c2n1 [Dipyridamole]
(A) 158 µg/mL

Reference source: paper PMC8880315
